Ref: paper PMC9006239

molecular target: human HDAC1 (Homo sapiens, UniProt Q13547); test: In vitro inhibitory activity on purified recombinant HDAC1 (fluorogenic peptide assay, Reaction Biology Corp.)
Sequence (Q13547 whole entry): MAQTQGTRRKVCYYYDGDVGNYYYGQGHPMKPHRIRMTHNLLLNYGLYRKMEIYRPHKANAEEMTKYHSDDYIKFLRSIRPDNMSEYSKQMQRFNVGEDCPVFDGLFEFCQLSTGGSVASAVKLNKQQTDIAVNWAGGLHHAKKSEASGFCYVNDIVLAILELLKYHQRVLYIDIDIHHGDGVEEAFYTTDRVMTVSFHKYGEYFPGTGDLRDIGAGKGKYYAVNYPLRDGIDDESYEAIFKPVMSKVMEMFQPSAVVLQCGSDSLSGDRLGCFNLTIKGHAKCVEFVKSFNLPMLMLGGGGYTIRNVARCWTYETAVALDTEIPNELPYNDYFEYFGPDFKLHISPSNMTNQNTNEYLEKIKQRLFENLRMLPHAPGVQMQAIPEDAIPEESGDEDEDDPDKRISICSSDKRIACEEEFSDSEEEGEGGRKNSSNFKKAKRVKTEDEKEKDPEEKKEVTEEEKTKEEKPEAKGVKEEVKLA
Listed next: entries and their corresponding pIC50.
Remember, pIC50 is on a log scale: it is -log10 of the molar concentration.

molecule	pIC50
Nc1n[nH]c(-c2cc(Cc3ccc(C(=O)NO)cc3)ccc2NC(=O)Cc2ccc3c(c2)OCO3)n1	5.74

Proceeding to the next molecule to report its pIC50.
**Query** So what does the record say about pIC50 for Nc1nc2c3ccc(Cc4ccc(C(=O)NO)cc4)cc3nc(Cc3ccc4c(c3)OCO4)n2n1 [Compound 11a] ?
**Result** 5.22

---

target: human HDAC8 (Homo sapiens); assay: In vitro inhibitory activity on purified recombinant HDAC8 (fluorogenic peptide assay, Reaction Biology Corp.)
Sequence (Q9BY41 whole entry): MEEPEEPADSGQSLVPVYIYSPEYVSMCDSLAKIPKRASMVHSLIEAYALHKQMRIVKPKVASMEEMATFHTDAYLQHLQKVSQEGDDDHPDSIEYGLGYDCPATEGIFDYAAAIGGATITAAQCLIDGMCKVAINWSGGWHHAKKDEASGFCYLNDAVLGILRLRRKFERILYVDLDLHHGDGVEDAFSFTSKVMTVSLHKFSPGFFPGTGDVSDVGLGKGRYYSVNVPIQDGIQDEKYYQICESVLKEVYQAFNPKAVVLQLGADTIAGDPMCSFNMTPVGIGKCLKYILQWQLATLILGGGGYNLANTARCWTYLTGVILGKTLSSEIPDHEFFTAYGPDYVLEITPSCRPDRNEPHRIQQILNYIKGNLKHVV
Listed next: entries and their corresponding IC50.
Number first, unit second.

compound	tgt	IC50
Nc1nc2c3ccc(Cc4ccc(C(=O)NO)cc4)cc3nc(Cc3ccc4c(c3)OCO4)n2n1 [Compound 11a]	human HDAC8 (Homo sapiens)	0.653 µM

Proceeding to the next compound to report its IC50.
**Query** So what does the record say about IC50 for Nc1n[nH]c(-c2cc(Cc3ccc(C(=O)NO)cc3)ccc2NC(=O)Cc2ccc3c(c2)OCO3)n1 [Compound 18] ?
**Result** 1.56 µM

---

Listed next: entries and their corresponding IC50.
Molecular target: human HDAC6 (Homo sapiens)
Construct: purchased Reaction Biology Corp. (contract assay)
Sequence (Q9UBN7 1-1215): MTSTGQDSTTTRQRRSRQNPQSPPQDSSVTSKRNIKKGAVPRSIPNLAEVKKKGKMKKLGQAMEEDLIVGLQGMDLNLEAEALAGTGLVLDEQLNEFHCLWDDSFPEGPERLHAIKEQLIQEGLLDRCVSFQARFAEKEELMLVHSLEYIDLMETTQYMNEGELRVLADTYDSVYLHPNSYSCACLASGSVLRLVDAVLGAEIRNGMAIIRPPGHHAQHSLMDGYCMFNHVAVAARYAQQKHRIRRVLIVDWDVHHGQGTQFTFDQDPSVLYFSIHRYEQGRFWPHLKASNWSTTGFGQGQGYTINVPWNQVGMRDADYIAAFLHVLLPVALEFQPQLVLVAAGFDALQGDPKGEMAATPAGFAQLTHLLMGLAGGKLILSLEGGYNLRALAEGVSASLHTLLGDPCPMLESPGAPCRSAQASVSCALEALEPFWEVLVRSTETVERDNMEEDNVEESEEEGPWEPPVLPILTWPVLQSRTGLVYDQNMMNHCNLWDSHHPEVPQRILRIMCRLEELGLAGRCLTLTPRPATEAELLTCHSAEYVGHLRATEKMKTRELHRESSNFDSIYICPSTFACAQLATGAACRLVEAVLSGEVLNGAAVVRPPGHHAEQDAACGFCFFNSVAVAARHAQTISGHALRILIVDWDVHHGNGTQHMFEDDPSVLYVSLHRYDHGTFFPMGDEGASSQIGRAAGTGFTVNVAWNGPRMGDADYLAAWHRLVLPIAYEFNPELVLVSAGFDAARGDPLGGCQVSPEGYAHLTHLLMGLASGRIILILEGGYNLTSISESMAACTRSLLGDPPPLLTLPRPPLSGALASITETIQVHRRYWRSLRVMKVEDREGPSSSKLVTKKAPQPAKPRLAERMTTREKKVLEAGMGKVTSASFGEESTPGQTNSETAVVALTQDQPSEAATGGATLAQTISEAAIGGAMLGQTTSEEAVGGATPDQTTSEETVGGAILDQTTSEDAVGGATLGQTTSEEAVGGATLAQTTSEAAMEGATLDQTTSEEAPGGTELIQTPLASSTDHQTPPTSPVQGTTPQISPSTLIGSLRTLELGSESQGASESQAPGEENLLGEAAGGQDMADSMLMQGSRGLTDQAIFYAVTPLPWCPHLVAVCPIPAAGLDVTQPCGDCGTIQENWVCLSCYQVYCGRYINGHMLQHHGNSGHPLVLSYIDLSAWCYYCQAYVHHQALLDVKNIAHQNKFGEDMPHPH
Experiment: In vitro inhibitory activity on purified recombinant HDAC6 (fluorogenic peptide assay, Reaction Biology Corp.)
Type: biochemical
Settings: purified recombinant enzyme; RHKK-Ac-AMC substrate; singlet 10-dose, 3-fold serial dilution
Protocol: Figure S1. […] All compounds were tested in singlet IC50 values were calculated Figure S2. […] All compounds were tested in singlet Figure S3. […] All compounds were tested in singlet
Record the value in nM, omitting the unit from your answer.

**Query** So what does the record say about IC50 for Nc1nc2c3ccc(Cc4ccc(C(=O)NO)cc4)cc3nc(Cc3ccc4c(c3)OCO4)n2n1 [Compound 11a] ?
**Result** 0.5

**Query** So what does the record say about IC50 for "Nc1n[nH]c(-c2cc(Cc3ccc(C(=O)NO)cc3)ccc2NC(=O)Cc2ccc3c(c2)OCO3)n1" ?
**Result** 0.1
